- Test system: Hepatotoxicity
- Method description: FDA HLAED, lactate dehydrogenase (LDH) increase
- Test settings: human
Recorded endpoint: LDH Increase - Number of Reports

Using the record for CC(=O)O[C@@]12CO[C@@H]1C[C@H](O)[C@@]1(C)C(=O)[C@H](O)C3=C(C)[C@@H](OC(=O)[C@H](O)[C@@H](NC(=O)OC(C)(C)C)c4ccccc4)C[C@@](O)([C@@H](OC(=O)c4ccccc4)[C@H]21)C3(C)C.O.O.O , state its measured LDH Increase - Number of Reports.
< 4

Using the record for COC(=O)C1=C(C)NC(C)=C(C(=O)OCCN(C)Cc2ccccc2)C1c1cccc([N+](=O)[O-])c1 (configuration not stated) , state its measured LDH Increase - Number of Reports.
>= 4

Using the record for Nc1c2c(nc3ccccc13)CCCC2 , state its measured LDH Increase - Number of Reports.
>= 4

Using the record for Cn1nnnc1SCC1=C(C(=O)O)N2C(=O)[C@@H](NC(=O)[C@H](O)c3ccccc3)[C@H]2SC1 , state its measured LDH Increase - Number of Reports.
< 4

Using the record for C[C@H](CCC(=O)O)[C@H]1CC[C@H]2[C@@H]3[C@@H](O)C[C@@H]4C[C@H](O)CC[C@]4(C)[C@H]3CC[C@]12C , state its measured LDH Increase - Number of Reports.
< 4

More entries:
Using the record for O=C(O)Cc1ccccc1Nc1c(Cl)cccc1Cl , state its measured LDH Increase - Number of Reports.
>= 4

Using the record for CC(S)C(=O)NCC(=O)O (configuration not stated) , state its measured LDH Increase - Number of Reports.
< 4
